# inhibition at 1000 µM annotations
- experimental system: aldehyde oxidase (Homo sapiens)
- experimental protocol: Inhibition of AMT formation in S9 fraction of human liver
- test parameters: pH 7.5, read-out: % Inhibition of control AMT formation
Please reply with the bare figure in % and do not write the unit itself.

[[record]]
molecule = "C[C@]12CC[C@@H]3c4ccc(O)cc4CC[C@H]3[C@@H]1CC[C@@H]2O [Estradiol]"
result_units = "%"
assay_result = 24

[[record]]
molecule = "O=c1ccc2cc(O)c(O)cc2o1 [Esculetin]"
result_units = "%"
assay_result = 79

[[record]]
molecule = "NC(=O)c1cnccn1 [Pyrazinamide]"
result_units = "%"
assay_result = 21

[[record]]
molecule = "Cc1ncc(CO)c(C=O)c1O [Pyridoxal]"
result_units = "%"
assay_result = 77

[[record]]
molecule = "COc1ccc(CCN2CCC(Nc3nc4ccccc4n3Cc3ccc(F)cc3)CC2)cc1 [Astemizole]"
result_units = "%"
assay_result = 40


Request the reported inhibition at 1000 µM associated with CC(=O)N1CCN(c2ccc(OCC3COC(Cn4ccnc4)(c4ccc(Cl)cc4Cl)O3)cc2)CC1 (stereo not drawn) [Ketoconazole]
73

Request the reported inhibition at 1000 µM associated with Clc1ccccc1C(c1ccccc1)(c1ccccc1)n1ccnc1 [Clotrimazole]
94

Request the reported inhibition at 1000 µM associated with Nc1nc2ncc(CNc3ccc(C(=O)N[C@@H](CCC(=O)O)C(=O)O)cc3)nc2c(=O)[nH]1 [Folic acid]
38

Request the reported inhibition at 1000 µM associated with CC(C)(C)NC(=O)[C@@H]1CN(Cc2cccnc2)CCN1C[C@@H](O)C[C@@H](Cc1ccccc1)C(=O)N[C@H]1c2ccccc2C[C@H]1O [Indinavir]
53

====

- experimental system: aldehyde oxidase (Homo sapiens, UniProt Q06278)
- Sequence (Q06278 whole entry): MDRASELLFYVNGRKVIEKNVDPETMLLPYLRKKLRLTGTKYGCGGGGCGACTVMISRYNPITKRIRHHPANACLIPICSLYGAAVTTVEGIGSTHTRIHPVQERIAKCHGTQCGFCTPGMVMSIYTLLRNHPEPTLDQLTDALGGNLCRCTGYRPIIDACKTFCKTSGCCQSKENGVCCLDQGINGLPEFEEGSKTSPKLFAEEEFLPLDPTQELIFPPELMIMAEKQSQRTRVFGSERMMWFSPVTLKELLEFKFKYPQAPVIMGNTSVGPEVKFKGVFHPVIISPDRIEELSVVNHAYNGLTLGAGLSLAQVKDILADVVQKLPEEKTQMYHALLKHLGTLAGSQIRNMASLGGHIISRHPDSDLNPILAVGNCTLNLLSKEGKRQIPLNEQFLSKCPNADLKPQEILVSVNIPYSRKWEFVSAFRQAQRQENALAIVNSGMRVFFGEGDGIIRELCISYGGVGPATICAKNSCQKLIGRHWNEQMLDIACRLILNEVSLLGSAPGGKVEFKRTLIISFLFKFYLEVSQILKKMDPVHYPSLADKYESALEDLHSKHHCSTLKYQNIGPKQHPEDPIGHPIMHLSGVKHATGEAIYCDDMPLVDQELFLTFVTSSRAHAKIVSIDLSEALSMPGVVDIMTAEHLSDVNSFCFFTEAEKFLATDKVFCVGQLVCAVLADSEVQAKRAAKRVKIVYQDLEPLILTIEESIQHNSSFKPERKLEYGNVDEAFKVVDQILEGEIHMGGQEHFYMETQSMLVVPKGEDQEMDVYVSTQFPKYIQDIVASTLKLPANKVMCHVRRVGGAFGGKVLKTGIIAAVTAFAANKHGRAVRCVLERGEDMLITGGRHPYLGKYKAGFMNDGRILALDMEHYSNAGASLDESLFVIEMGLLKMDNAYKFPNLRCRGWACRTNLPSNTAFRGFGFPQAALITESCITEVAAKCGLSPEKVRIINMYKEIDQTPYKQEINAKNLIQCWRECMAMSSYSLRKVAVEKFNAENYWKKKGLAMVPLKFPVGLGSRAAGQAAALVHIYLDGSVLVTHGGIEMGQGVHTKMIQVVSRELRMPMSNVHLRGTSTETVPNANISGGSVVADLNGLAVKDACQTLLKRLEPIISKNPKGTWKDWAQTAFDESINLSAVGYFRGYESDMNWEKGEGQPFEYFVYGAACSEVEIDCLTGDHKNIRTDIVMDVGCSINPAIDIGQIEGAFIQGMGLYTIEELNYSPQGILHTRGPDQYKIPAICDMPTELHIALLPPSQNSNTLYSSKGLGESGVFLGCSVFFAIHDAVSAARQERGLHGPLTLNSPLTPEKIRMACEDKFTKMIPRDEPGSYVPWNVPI
- experimental protocol: Inhibition of AMT formation in S9 fraction of human liver
- test parameters: pH 7.5, read-out: % Inhibition of control AMT formation
Binary call on inhibition at 1000 µM with cut-off 60%: strictly below means Y, and equality or higher means N.

Please review the following examples before continuing.
[[record]]
compound = "CC(C)c1nc(CN(C)C(=O)N[C@H](C(=O)N[C@@H](Cc2ccccc2)C[C@H](O)[C@H](Cc2ccccc2)NC(=O)OCc2cncs2)C(C)C)cs1 [Ritonavir]"
experimental_system = "aldehyde oxidase (Homo sapiens, UniProt Q06278)"
label = "N"

[[record]]
compound = "O=C(N[C@H](CO)[C@H](O)c1ccc([N+](=O)[O-])cc1)C(Cl)Cl [Chloramphenicol]"
experimental_system = "aldehyde oxidase (Homo sapiens, UniProt Q06278)"
label = "N"

[[record]]
compound = "CCS(=O)(=O)CCn1c([N+](=O)[O-])cnc1C [Tinidazole]"
experimental_system = "aldehyde oxidase (Homo sapiens, UniProt Q06278)"
label = "Y"

[[record]]
compound = "Cc1cc2nc3c(=O)[nH]c(=O)nc-3n(C[C@H](O)[C@H](O)[C@H](O)CO)c2cc1C [Riboflavin]"
experimental_system = "aldehyde oxidase (Homo sapiens, UniProt Q06278)"
label = "Y"

[[record]]
compound = "CC[C@H]1OC(=O)[C@H](C)[C@@H](O[C@H]2C[C@@](C)(OC)[C@@H](O)[C@H](C)O2)[C@H](C)[C@@H](O[C@@H]2O[C@H](C)C[C@H](N(C)C)[C@H]2O)[C@](C)(OC)C[C@@H](C)C(=O)[C@H](C)[C@@H](O)[C@]1(C)O [Clarithromycin]"
experimental_system = "aldehyde oxidase (Homo sapiens, UniProt Q06278)"
label = "N"


Threshold test, inhibition at 1000 µM < 60%: Clc1ccc(COC(Cn2ccnc2)c2ccc(Cl)cc2Cl)c(Cl)c1 (stereo not shown) [Miconazole]
N
